Biological target: LARG-stimulated RhoA nucleotide binding (Homo sapiens)
Sequence (Q9NZN5 765-1138): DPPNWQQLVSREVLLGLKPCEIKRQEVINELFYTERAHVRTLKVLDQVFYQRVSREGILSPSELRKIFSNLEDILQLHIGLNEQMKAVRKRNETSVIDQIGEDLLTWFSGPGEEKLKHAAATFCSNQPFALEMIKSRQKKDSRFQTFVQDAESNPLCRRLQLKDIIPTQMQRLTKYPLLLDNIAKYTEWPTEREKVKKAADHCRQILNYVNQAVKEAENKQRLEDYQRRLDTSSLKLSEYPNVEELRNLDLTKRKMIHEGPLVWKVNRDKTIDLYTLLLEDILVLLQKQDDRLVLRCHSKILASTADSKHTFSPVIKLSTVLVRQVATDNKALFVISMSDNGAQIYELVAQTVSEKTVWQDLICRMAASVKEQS
Assay type: biochemical
Conditions: BODIPY-TR-GTPγS fluorescence polarization dose-response, 20 minutes
Here the recorded Hill Slope [TR-GTPγS] is given for each entry.
Field format: numeric only.

Below, each entry is followed by its recorded Hill Slope [TR-GTPγS] result.
{"columns": ["compound", "tested.system", "Hill Slope [TR-GTPγS]"],
 "data": [
  ["N=C1S/C(=C\\c2ccc(-c3ccccc3[N+](=O)[O-])o2)C(=O)N1c1ccc2c(c1)OCO2 [CCG-13528]", "LARG-stimulated RhoA nucleotide binding (Homo sapiens)", -3.4],
  ["Nc1ccc(O)c(-c2nc3cc(N)ccc3s2)c1 [CCG-5849]", "LARG-stimulated RhoA nucleotide binding (Homo sapiens)", -1.6],
  ["Cc1cccc(NCC(=O)N/N=C\\c2c(Br)cc(Br)c(O)c2Br)c1 [CCG-14113]", "LARG-stimulated RhoA nucleotide binding (Homo sapiens)", -1.0],
  ["O=c1oc2cc(O)ccc2cc1-c1csc(-c2ccc(-c3ccccc3)cc2)n1 [CCG-7167]", "LARG-stimulated RhoA nucleotide binding (Homo sapiens)", -1.8]
]}

Continue with the next compound.
Query block: Identify the measured Hill Slope [TR-GTPγS] of O=C1NC(=S)NC(=O)C1=Cc1ccc(-c2ccc(S(=O)(=O)Nc3nccs3)cc2)o1 [CCG-14631] for LARG-stimulated RhoA nucleotide binding (Homo sapiens).
Result block: -0.7

Origin of values: paper PMC2698131
